B1: Caulobacter ParB omega fusion; a variant is named by its letters at X, in order, B8GW30 (parent)
chain: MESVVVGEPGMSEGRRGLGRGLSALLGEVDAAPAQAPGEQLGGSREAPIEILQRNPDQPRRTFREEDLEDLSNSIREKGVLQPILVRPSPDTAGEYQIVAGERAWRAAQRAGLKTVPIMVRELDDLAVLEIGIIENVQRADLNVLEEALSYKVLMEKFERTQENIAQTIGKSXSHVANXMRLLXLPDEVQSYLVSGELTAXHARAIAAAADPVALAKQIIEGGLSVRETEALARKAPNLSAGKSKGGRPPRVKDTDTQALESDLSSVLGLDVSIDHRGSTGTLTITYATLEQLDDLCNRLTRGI

# Variants of: B1
# Assay Text: one-hybrid fitness for binding parS DNA (scaled: cognate 1, non-cognate 0); higher = stronger binding
# Condition Info: with parS DNA site
Whole data set: some 81,000 sequences, median “one-hybrid fitness for binding parS DNA” near -0.17, cut for the highest 2% near 0.51. Shown is part of a subset that was picked to be rich in the highest values.
Record form. Attribute: one-hybrid fitness for binding parS DNA. Fill in for each entry.

Consider the variant RNDA and give its measured one-hybrid fitness for binding parS DNA.
0.354

Look up one-hybrid fitness for binding parS DNA for this variant: RATQ
≤ 0.2

Need one-hybrid fitness for binding parS DNA of PRDA , thanks.
≤ 0.2

Bench note: what one-hybrid fitness for binding parS DNA did VYQY show?
≤ 0.2

Given the variant RMHT , what is its reported one-hybrid fitness for binding parS DNA?
0.946

Which one-hybrid fitness for binding parS DNA is listed for NSAT ?
≤ 0.2

What value of measured one-hybrid fitness for binding parS DNA is listed for REHT ?
≤ 0.2

Which one-hybrid fitness for binding parS DNA is listed for FAKY ?
≤ 0.2

Given the variant RMAP , what is its reported one-hybrid fitness for binding parS DNA?
0.205

Which one-hybrid fitness for binding parS DNA is listed for RHHH ?
≤ 0.2

Quick one: one-hybrid fitness for binding parS DNA for SDSY ?
≤ 0.2

Fill in: one-hybrid fitness for binding parS DNA of TTLV is ___
≤ 0.2

Please report the recorded one-hybrid fitness for binding parS DNA for LIPT .
≤ 0.2

Returns the measured one-hybrid fitness for binding parS DNA for the input variant. Input: KPTT
≤ 0.2

I'd like to know its one-hybrid fitness for binding parS DNA. The variant in question is SNSI
≤ 0.2

Give the measured one-hybrid fitness for binding parS DNA of SWLK .
≤ 0.2

Which one-hybrid fitness for binding parS DNA value belongs to RIHT ?
0.936

// returns reported one-hybrid fitness for binding parS DNA for input RPHT
≤ 0.2

I have this variant here, SEQC , and I need its recorded one-hybrid fitness for binding parS DNA.
≤ 0.2

Name the reported one-hybrid fitness for binding parS DNA value associated with the variant REGS
≤ 0.2

Query (variant): WMRR ; field requested: one-hybrid fitness for binding parS DNA
≤ 0.2

Requested field: one-hybrid fitness for binding parS DNA. Item: RMMG
0.985

Fill in the blank: the reported one-hybrid fitness for binding parS DNA of RHHP is ____.
≤ 0.2

Look at this variant and give its reported one-hybrid fitness for binding parS DNA. VYPT
≤ 0.2

Which one-hybrid fitness for binding parS DNA is reported for this variant? RMAG
1.01

Tell me the measured one-hybrid fitness for binding parS DNA of RDNC , please.
≤ 0.2

What one-hybrid fitness for binding parS DNA value was documented for this variant, SYEV ?
≤ 0.2

What one-hybrid fitness for binding parS DNA value was documented for this variant, RNWA ?
0.294

Data request, read-out one-hybrid fitness for binding parS DNA, for RHTR
≤ 0.2

Tell me the measured one-hybrid fitness for binding parS DNA of TFRF , please.
≤ 0.2

Tell me the measured one-hybrid fitness for binding parS DNA of LDGI , please.
≤ 0.2

// query one-hybrid fitness for binding parS DNA value for entry TMII
≤ 0.2

Returns the measured one-hybrid fitness for binding parS DNA for the input variant. Input: RMMH
≤ 0.2

For the variant shown here, RLMY , give the reported one-hybrid fitness for binding parS DNA.
0.49

Which one-hybrid fitness for binding parS DNA is reported for this variant? RMFY
0.492

Any idea what its one-hybrid fitness for binding parS DNA is? The variant is KLRG
≤ 0.2

Tell me the measured one-hybrid fitness for binding parS DNA of RCTT , please.
0.949

// returns reported one-hybrid fitness for binding parS DNA for input QGYV
≤ 0.2

Report one-hybrid fitness for binding parS DNA for RLMR please.
≤ 0.2

Fill blank: measured one-hybrid fitness for binding parS DNA of the variant RMFK is ____.
≤ 0.2

Quick one: one-hybrid fitness for binding parS DNA of RHHT ?
0.869

Looking for the measured one-hybrid fitness for binding parS DNA of SVCS , can you help?
≤ 0.2

Query (variant): RHTT ; field requested: one-hybrid fitness for binding parS DNA
0.868

Reported one-hybrid fitness for binding parS DNA, variant RMFG : ____
1

Given the entry TVDW , report its measured one-hybrid fitness for binding parS DNA.
≤ 0.2

Would you mind telling me what one-hybrid fitness for binding parS DNA value was observed for DGSS ?
≤ 0.2
